assay.system: Tyrosyl-tRNA synthetase, putative (Trypanosoma cruzi (strain CL Brener))
assay.procedure: Trypanosoma cruzi tyrosyl tRNA synthetase (TcYRS) _High Tyrosine SOP; note: in the data most compounds retested in dose-response had high values
Format: functional
Parameters: scale not given: direction of the effect not stated beside the values
condition.details: 30 µM
value.type: Percent Effect (%)

INSERT INTO assay_data (molecule, value_type, numeric_value) VALUES
  ('CCC(C(=O)NC)N(c1cccc(C)c1)S(C)(=O)=O (stereo unspecified)', 'Percent Effect', 4.92),
  ('Cc1nc(CN(C)C2CCN(Cc3sc(C)nc3C)C2)no1 (stereo unspecified)', 'Percent Effect', 4.43),
  ('Cc1cccc(CN2CCc3ncnc(N4CCOCC4)c3CC2)n1', 'Percent Effect', -1.04),
  ('c1csc(-c2nc(CNC3CCc4ncnn4C3)co2)c1 (stereo unspecified)', 'Percent Effect', 2.91),
  ('CC(C)C(=O)N1CCN(C(=O)c2cscn2)[C@H]2CS(=O)(=O)C[C@H]21', 'Percent Effect', 3.16),
  ('c1ncn(CC2CCCCN2Cc2noc(C3CC3)n2)n1 (stereo unspecified)', 'Percent Effect', 3.43),
  ('Cc1nc(C(C)C)sc1C(=O)NS(=O)(=O)c1ccc(C#N)cc1', 'Percent Effect', 4.76),
  ('COCCOc1ccc(NC(=O)C2CCC2)cn1', 'Percent Effect', 9.36),
  ('CC(=O)c1ccc(C(=O)NCCCOC(C)c2ccccc2)s1 (stereo unspecified)', 'Percent Effect', -3.19),
  ('O=C(CNC(=O)N1CCc2c([nH]c3ccc(Cl)cc23)C1)N1CCOCC1', 'Percent Effect', -3.17),
  ('O=C(NC1CC1)c1cc(NC(=O)N2CCCC(O)C2)ccc1Cl (stereo unspecified)', 'Percent Effect', 6.25);

----------
assay.system: Protein translocase subunit SecA (Escherichia coli (strain K12)) (UniProt P10408)
Sequence (P10408 whole entry): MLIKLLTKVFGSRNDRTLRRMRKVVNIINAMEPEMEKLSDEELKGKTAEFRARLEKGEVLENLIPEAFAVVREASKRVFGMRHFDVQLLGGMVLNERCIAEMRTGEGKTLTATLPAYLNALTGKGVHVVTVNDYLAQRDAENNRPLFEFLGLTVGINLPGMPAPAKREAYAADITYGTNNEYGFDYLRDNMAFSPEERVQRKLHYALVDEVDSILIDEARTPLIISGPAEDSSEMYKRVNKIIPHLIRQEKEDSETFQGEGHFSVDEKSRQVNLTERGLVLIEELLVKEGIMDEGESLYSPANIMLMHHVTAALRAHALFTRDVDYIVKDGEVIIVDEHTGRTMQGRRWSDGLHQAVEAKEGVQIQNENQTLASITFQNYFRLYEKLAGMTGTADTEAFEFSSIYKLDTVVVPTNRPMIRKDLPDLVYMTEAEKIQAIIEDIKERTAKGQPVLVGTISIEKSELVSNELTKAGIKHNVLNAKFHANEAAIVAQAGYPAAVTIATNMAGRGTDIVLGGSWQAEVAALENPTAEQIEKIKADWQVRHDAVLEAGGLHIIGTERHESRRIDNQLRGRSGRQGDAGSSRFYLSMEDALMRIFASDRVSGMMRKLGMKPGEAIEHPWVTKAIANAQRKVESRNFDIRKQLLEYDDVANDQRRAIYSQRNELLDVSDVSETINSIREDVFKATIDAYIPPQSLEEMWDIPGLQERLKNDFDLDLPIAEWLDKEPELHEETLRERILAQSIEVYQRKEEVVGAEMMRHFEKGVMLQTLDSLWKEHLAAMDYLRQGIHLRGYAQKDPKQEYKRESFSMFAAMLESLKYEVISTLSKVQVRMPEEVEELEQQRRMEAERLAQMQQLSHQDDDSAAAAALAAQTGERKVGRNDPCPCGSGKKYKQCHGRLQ
assay.procedure: Assay to Identify E. coli SecA ATPase Inhibitors
Type: functional
Parameters: scale not given: direction of the effect not stated beside the values
condition.details: 30 µM
Entries with a potency or affinity are not part of this list.
Measured Percent Effect accompanies every entry in the list below.
value.type: Percent Effect (%)

INSERT INTO results (compound, numeric_value) VALUES
  ('CC(C)c1nc(N2CC(N3CCCCC3C)C2)c2cnn(C)c2n1 (stereo unspecified)', -7.05),
  ('CC(OCC(F)(F)F)C(=O)N1CCN(S(C)(=O)=O)CC1 (stereo unspecified)', -3.82),
  ('O=C(NCc1cc(=O)n2c(n1)CN(CC1CCOC1)CCC2)C1CC1 (stereo unspecified)', 0.233),
  ('OC(CN1CCN(Cc2ccc(F)c(F)c2)CC1)C1CC1 (stereo unspecified)', -3.08),
  ('COc1ccc(Cc2nnc(SC)o2)cc1OC', -4.8),
  ('COc1ccc(CN(C)C(=O)CCC(=O)c2cccs2)c(OC)c1OC', -2.26);

----------
assay.system: Protein translocase subunit SecA (Escherichia coli (strain K12)) (UniProt P10408)
assay.procedure: Assay to Identify E. coli SecA ATPase Inhibitors
Type: functional
Design: scale not given: direction of the effect not stated beside the values
condition.details: 30 µM
Entries with a potency or affinity are not part of this list.
Measured Percent Effect accompanies every entry in the list below.
value.type: Percent Effect (%)

INSERT INTO results (compound, unit_abbreviation, numeric_value) VALUES
  ('O=C(Nc1ncn(CC(=O)N2CCCCCC2)n1)C1CCCO1 (centres undefined)', '%', -2.31),
  ('Cc1cc(CNCc2c(C)nn(C)c2N2CCOCC2)no1', '%', -3.31),
  ('Cc1noc(C2CCN(C(=O)c3c(C)noc3C)CC2)n1', '%', -3.97),
  ('Cc1cc(C)n(CC2CCCN2C(=O)c2cc[nH]n2)n1 (centres undefined)', '%', -7.68),
  ('Cc1cnn(CC2CCCN2C(=O)c2cccc(-n3cnnn3)c2)c1 (centres undefined)', '%', -0.0058),
  ('CS(=O)(=O)NC[C@H]1OC[C@@H]2CCN(Cc3ccc(F)cc3)C[C@@H]21', '%', 0.854),
  ('CC(=O)N(Cc1noc(C2CC2)n1)C1CCN(Cc2nccn2C)C1 (centres undefined)', '%', -1.42),
  ('Cc1ccc(CN2CC(C(=O)Nc3ccccc3)C3(CCOCC3)C2)s1 (centres undefined)', '%', -2.15),
  ('c1ccc(CN2CCCC(c3nccnc3-n3ccnc3)C2)cc1 (centres undefined)', '%', -1.15),
  ('O=C(CCc1nc2cccnc2[nH]1)NCc1ccc2c(c1)OCO2', '%', -3.15),
  ('COC1CCN(C(=O)Cc2csc(-c3ncccn3)n2)CC1', '%', -1.74),
  ('Cc1cnc(NC(=O)N2CCCC2)s1', '%', -4.49),
  ('N#CC1(C(=O)N2CCN(Cc3ccon3)CC2)CCC1', '%', -1.32),
  ('Fc1ccc(CCN2CCC(c3nnc(-c4cccnc4)o3)CC2)cc1', '%', -1.2);
